TESTED_TARGET: UniProt:Q9H0K1
Sequence (Q9H0K1 whole entry): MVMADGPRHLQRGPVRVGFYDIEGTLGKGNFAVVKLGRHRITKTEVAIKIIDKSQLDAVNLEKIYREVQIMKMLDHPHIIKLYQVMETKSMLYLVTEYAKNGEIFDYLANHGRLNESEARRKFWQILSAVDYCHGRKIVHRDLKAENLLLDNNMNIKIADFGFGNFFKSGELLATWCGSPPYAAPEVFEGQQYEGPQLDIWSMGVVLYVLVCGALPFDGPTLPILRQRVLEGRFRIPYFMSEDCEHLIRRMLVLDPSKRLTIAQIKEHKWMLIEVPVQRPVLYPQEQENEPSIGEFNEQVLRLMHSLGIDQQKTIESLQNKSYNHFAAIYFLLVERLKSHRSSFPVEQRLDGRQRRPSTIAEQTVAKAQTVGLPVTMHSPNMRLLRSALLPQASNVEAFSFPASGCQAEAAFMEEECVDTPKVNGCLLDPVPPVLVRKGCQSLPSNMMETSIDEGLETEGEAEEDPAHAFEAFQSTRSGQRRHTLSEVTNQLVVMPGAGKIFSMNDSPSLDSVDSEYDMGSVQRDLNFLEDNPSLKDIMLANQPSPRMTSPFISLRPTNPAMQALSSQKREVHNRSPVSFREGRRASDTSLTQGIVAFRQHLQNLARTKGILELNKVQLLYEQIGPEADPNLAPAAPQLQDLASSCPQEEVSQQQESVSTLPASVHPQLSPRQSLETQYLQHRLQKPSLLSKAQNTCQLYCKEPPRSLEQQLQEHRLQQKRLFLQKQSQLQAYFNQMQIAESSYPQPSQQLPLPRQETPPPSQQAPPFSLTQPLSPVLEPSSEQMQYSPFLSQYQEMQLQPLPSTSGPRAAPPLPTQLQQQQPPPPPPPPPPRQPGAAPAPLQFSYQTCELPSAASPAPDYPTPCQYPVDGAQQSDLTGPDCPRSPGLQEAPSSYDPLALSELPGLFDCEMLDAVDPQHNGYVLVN
PROTOCOL: SIK2 kinase assay (radiometric, 10 μM ATP)
Format: biochemical
MEASUREMENT_SETUP: read-out: SIK2 (QIK) (SEQ ID NO: 11) kinase inhibition result
pIC50: −log10 of the molar value.
OBSERVED_PROPERTY: pIC50

Q) What does the record list as pIC50 for CN(C(C)(C)C)S(=O)(=O)c1cccc(-c2cnc3[nH]cc(-c4ccc5c(c4)OC(F)(F)O5)c3c2)c1 ?
A) > 7.00

Q) What value of measured pIC50 is listed for Fc1cccc(-c2c[nH]c3ncc(-c4ccc(CN5CCOCC5)s4)cc23)c1Cl ?
A) > 7.00

Q) Any idea what pIC50 was measured for COc1c(F)cc(F)cc1-c1c[nH]c2ncc(-c3ccsc3)cc12 ?
A) < 6.00

Q) I am curious: what pIC50 value has been reported for c1cnc(N2CCOCC2)c(-c2c[nH]c3nccc(-c4ccsc4)c23)c1 ?
A) < 7.00

Q) Query: pIC50; subject: COc1c(F)cccc1-c1c[nH]c2ncc(-c3ccc(CN4CCCC4)s3)cc12
A) > 7.00

Q) Need pIC50 of COc1c(F)cccc1-c1c[nH]c2nccc(-c3ccsc3)c12 , thanks.
A) > 7.00

Q) What does the record list as pIC50 for CCOc1ccccc1-c1n[nH]c2nccc(-c3ccsc3)c12 ?
A) < 7.00

Q) For the compound Fc1c(-c2c[nH]c3ncc(-c4ccsc4)cc23)ccnc1Cl , what pIC50 is on record?
A) > 7.00

Q) Requested field: pIC50. Item: FC1(F)Oc2ccc(-c3c[nH]c4ncc(-c5ccc(CN6CCCC6)s5)cc34)cc2O1
A) > 7.00
